Listing of entries alongside the reported Tmax.
Experiment: Pharmacokinetics of five main constituents in immunosuppressive mice plasma after oral administration of RA (HPLC-MS/MS)
Assay type: in vivo, Balb/c mice
Conditions: male, mouse; oral RA extract 6 g/kg BW; immunosuppressive Balb/c mice plasma; read-out: tmax
Protocol: The maximum plasma concentration (Cmax) and the time of maximum plasma concentration (tmax) were obtained from the observed data (Table 3). The plasma concentration-time profiles for calycosin-7-O-glucoside, ononin, calycosin, formononetin and astragaloside IV are shown in Figure 4. To quantify calycosin-7-O-glucoside, ononin, calycosin, formononetin and astragaloside IV in mice, a 10-μL IS solution was added into 50 μL of plasma and mixed for 30 s. […]
Give the value, in units of h, as a plain number.

INSERT INTO assay_data (compound, quantitative_result) VALUES
  ('COc1ccc(-c2coc3cc(O)ccc3c2=O)cc1O [Peak 37, Calycosin]', 1.5),
  ('COc1ccc(-c2coc3cc(O[C@@H]4O[C@H](CO)[C@@H](O)[C@H](O)[C@H]4O)ccc3c2=O)cc1O (single isomer, unassigned) [Peak 29, Calycosin-7-O-glucoside]', 1.5);

Form field Tmax, entry COc1ccc(-c2coc3cc(O[C@@H]4O[C@H](CO)[C@@H](O)[C@H](O)[C@H]4O)ccc3c2=O)cc1 (single isomer, unassigned) [Peak 33, Ononin] : 1.5

====

Assay: Pharmacokinetics of five main constituents in immunosuppressive mice plasma after oral administration of RA (HPLC-MS/MS)
Assay type: in vivo, Balb/c mice
Conditions: male, mouse, in vivo, 6 g/kg BW; oral RA; immunosuppressive Balb/c mice plasma; read-out: AUC0–t
readout: AUC(0-t) (ng·h/mL)
Give the value, in units of ng·h/mL, as a plain number.

Form field AUC(0-t), entry CC(C)(O)[C@@H]1CC[C@](C)(C2[C@@H](O)C[C@@]3(C)[C@@H]4C[C@H](O[C@@H]5O[C@H](CO)[C@@H](O)[C@H](O)[C@H]5O)C5C(C)(C)[C@@H](O[C@@H]6OC[C@@H](O)[C@H](O)[C@H]6O)CC[C@@]56C[C@@]46CC[C@]23C)O1 (single isomer, unassigned) [Peak 45, Astragaloside IV] : 695

====

Listing of entries alongside the reported Source: Dosed Plasma (time points at which the compound was detected).
Assay: Profiling of absorbed constituents and metabolites in mice plasma after oral administration of RA (UFLC-DAD-Q-TOF-MS/MS)
Settings: oral RA extract 6 g/kg BW; cyclophosphamide-induced immunosuppressed Balb/c mice; plasma sampled 0.25-36 h; '-' = not detected

Below, 4 molecules whose answers are already recorded.
INSERT INTO results (molecule, result) VALUES
  ('COc1cc(C=O)cc(OC)c1O [Peak 23, Syringaldehyde]', '0.25 to 6 h'),
  ('CCCCC=CC=CC(=O)O (single isomer, unassigned) [Peak 35, 2,4-Nonadienic acid]', '0.25 to 36 h'),
  ('COc1ccc(-c2coc3cc(O[C@@H]4O[C@H](CO)[C@@H](O)[C@H](O)[C@H]4O)cc(O)c3c2=O)cc1O (single isomer, unassigned) [Peak 26, Pratensein-7-O-glucoside]', '0.25 to 8 h'),
  ('COc1cc(O[C@H]2O[C@H](CO)[C@H](O)[C@H](O)[C@H]2O[C@H]2OC[C@@](O)(CO)[C@H]2O)ccc1O (single isomer, unassigned) [Peak 13, Markhamioside F]', '0.25 to 8 h');

Form field Source: Dosed Plasma (time points at which the compound was detected), entry COc1ccc(-c2coc3cc(O[C@@H]4O[C@H](CO)[C@@H](O)[C@H](O)[C@H]4O)ccc3c2=O)cc1 (single isomer, unassigned) [Peak 33, Ononin] : 0.25 to 24 h

Form field Source: Dosed Plasma (time points at which the compound was detected), entry CC(C)(O)[C@@H]1CC[C@](C)(C2[C@@H](O)C[C@@]3(C)[C@@H]4C[C@H](O[C@@H]5O[C@H](CO)[C@@H](O)[C@H](O)[C@H]5O)C5C(C)(C)[C@@H](O[C@@H]6OC[C@@H](O)[C@H](O)[C@H]6O)CC[C@@]56C[C@@]46CC[C@]23C)O1 (single isomer, unassigned) [Peak 45, Astragaloside IV] : 0.25 to 24 h

Form field Source: Dosed Plasma (time points at which the compound was detected), entry COc1ccc2c(c1OC)OC1c3ccc(O[C@@H]4O[C@H](CO)[C@@H](O)[C@H](O)[C@H]4O)cc3OCC21 (single isomer, unassigned) [Peak 34, 9,10-dimethoxypterocarpan-3-O-glucoside] : 0.25 to 12 h

Form field Source: Dosed Plasma (time points at which the compound was detected), entry C[C@@H]1O[C@@H](O[C@H]2[C@H](O[C@H]3[C@H](O[C@H]4CC[C@@]5(C)[C@@H](CC[C@]6(C)[C@@H]5CC=C5[C@@H]7CC(C)(C)C[C@@H](O)[C@]7(C)CC[C@]56C)[C@@]4(C)CO)O[C@H](C(=O)O)[C@@H](O)[C@@H]3O)OC[C@@H](O)[C@@H]2O)[C@H](O)[C@H](O)[C@H]1O (single isomer, unassigned; peak 48) [Peak 48, Astragaloside VIII] : 0.25 to 24 h

Form field Source: Dosed Plasma (time points at which the compound was detected), entry CC(C)(O[C@@H]1O[C@H](CO)[C@@H](O)[C@H](O)[C@H]1O)[C@@H]1CC[C@](C)([C@H]2[C@@H](O)C[C@@]3(C)[C@@H]4C[C@H](O)[C@H]5C(C)(C)[C@@H](O[C@@H]6OC[C@@H](O)[C@H](O)[C@H]6O[C@@H]6O[C@H](CO)[C@@H](O)[C@H](O)[C@H]6O)CC[C@@]56C[C@@]46CC[C@]23C)O1 (single isomer, unassigned; peak 40) [Peak 40, Astragaloside V] : 0.25 to 24 h

====

Test: Pharmacokinetics of five main constituents in immunosuppressive mice plasma after oral administration of RA (HPLC-MS/MS)
Assay type: in vivo, Balb/c mice
Conditions: male, mouse, in vivo; oral RA extract 6 g/kg BW; immunosuppressive Balb/c mice plasma; read-out: t1/2z (converted)
readout: half-life (h)
Give the value, in units of h, as a plain number.

Form field half-life, entry CC(C)(O)[C@@H]1CC[C@](C)(C2[C@@H](O)C[C@@]3(C)[C@@H]4C[C@H](O[C@@H]5O[C@H](CO)[C@@H](O)[C@H](O)[C@H]5O)C5C(C)(C)[C@@H](O[C@@H]6OC[C@@H](O)[C@H](O)[C@H]6O)CC[C@@]56C[C@@]46CC[C@]23C)O1 (single isomer, unassigned) [Peak 45, Astragaloside IV] : 3.48

====

Assay: Pharmacokinetics of five main constituents in immunosuppressive mice plasma after oral administration of RA (HPLC-MS/MS)
Type: in vivo, Balb/c mice
Details: male, Balb/c, mouse, in vivo, po, 6 g/kg
readout: Tmax (h)
Give the value, in units of h, as a plain number.

Form field Tmax, entry COc1ccc(-c2coc3cc(O)ccc3c2=O)cc1 [Peak 39, Formononetin] : 2

====

Listing of entries alongside the reported Source: Dosed Plasma (time points at which the compound was detected).
Assay: Profiling of absorbed constituents and metabolites in mice plasma after oral administration of RA (UFLC-DAD-Q-TOF-MS/MS)
Settings: oral RA extract 6 g/kg BW; cyclophosphamide-induced immunosuppressed Balb/c mice; plasma sampled 0.25-36 h; '-' = not detected

Below, 3 compounds whose answers are already recorded.
INSERT INTO results (compound, result) VALUES
  ('COc1ccc(-c2coc3cc(OC4OC(C(=O)O)C(O)C(O)C4O)ccc3c2=O)cc1 (stereo not drawn) [Peak M3, Glucuronidated formononetin]', '0.25 to 8 h'),
  ('CC(CCC(O)C(C)(C)O)C1C(O)CC2(C)C3CC(OC4OC(CO)C(O)C(O)C4O)C4C(C)(C)C(OC5OCC(O)C(O)C5O)CCC45CC35CCC12C (single isomer, unassigned) [Peak 43, Cyclocanthoside E]', '3 h'),
  ('COc1ccc(-c2coc3cc(O)ccc3c2=O)cc1O [Peak 37, Calycosin]', '0.25 to 24 h');

Form field Source: Dosed Plasma (time points at which the compound was detected), entry O=C(O)c1ccc(O)c(O)c1 [Peak 12, Protocatechuic acid] : 0.25 to 36 h
